- tested target: Carbonic anhydrase (Homo sapiens) (UniProt P00918+P43166+P00915+P07451+P23280+O43570+Q9ULX7+Q16790+P22748+Q8N1Q1+Q9Y2D0+P35218)
Listed below: Log K values for each entry.

{"columns": ["smiles data", "experimental result"],
 "data": [
  ["CCCCOC(=O)c1ccc(S(N)(=O)=O)cc1", 9.11],
  ["CCNC(=O)c1ccc(S(N)(=O)=O)cc1", 7.53],
  ["CCCCCCCNC(=O)c1ccc(S(N)(=O)=O)cc1", 8.93],
  ["CCCCCNC(=O)c1ccc(S(N)(=O)=O)cc1", 8.75]
]}

Note to self: Log K recorded for CCCOC(=O)c1ccccc1S(N)(=O)=O was 5.28

Note to self: Log K recorded for CCCOC(=O)c1ccc(S(N)(=O)=O)cc1 was 8.77

Note to self: Log K recorded for CCCCCOC(=O)c1ccccc1S(N)(=O)=O was 6.18

Note to self: Log K recorded for CCOC(=O)c1ccc(S(N)(=O)=O)cc1 was 8.5

----------
- tested target: GABA-A receptor; anion channel
- experiment: The compound was tested for benzodiazepine receptor binding affinity
measurement label: Log 1/Ki

Illustrative cases are given below, each with its answer.
{"columns": ["smiles data", "Log 1/Ki"],
 "data": [
  ["O=C(NCc1cccc(Cl)c1)C(=O)c1c[nH]c2ccccc12", 6.8],
  ["O=C(NCc1ccc(O)cc1)C(=O)c1c[nH]c2ccc([N+](=O)[O-])cc12", 7.92],
  ["COc1cc(CNC(=O)C(=O)c2c[nH]c3ccc(Cl)cc23)ccc1O", 7.57],
  ["COc1cccc(CNC(=O)C(=O)c2c[nH]c3ccc(Cl)cc23)c1", 6.79],
  ["COc1ccc(CNC(=O)C(=O)c2c[nH]c3ccc(Cl)cc23)cc1", 6.97]
]}

Note to self: Log 1/Ki recorded for O=C(NCc1ccc(F)cc1)C(=O)c1c[nH]c2ccccc12 was 7.28

Note to self: Log 1/Ki recorded for COc1ccc(CNC(=O)C(=O)c2c[nH]c3ccc([N+](=O)[O-])cc23)cc1OC was 7.96

Note to self: Log 1/Ki recorded for O=C(NCc1cccc(O)c1)C(=O)c1c[nH]c2ccc([N+](=O)[O-])cc12 was 7.19

Note to self: Log 1/Ki recorded for COc1ccc(CNC(=O)C(=O)c2c[nH]c3ccc(Cl)cc23)cc1OC was 7.52

Note to self: Log 1/Ki recorded for COc1cccc(CNC(=O)C(=O)c2c[nH]c3ccccc23)c1 was 6.54

Note to self: Log 1/Ki recorded for COc1cc(CNC(=O)C(=O)c2c[nH]c3ccccc23)ccc1O was 6.85

Note to self: Log 1/Ki recorded for COc1ccc(CNC(=O)C(=O)c2c[nH]c3ccccc23)cc1OC was 7.03

Note to self: Log 1/Ki recorded for O=C(NCc1ccccc1)C(=O)c1c[nH]c2ccc(Cl)cc12 was 6.31

Note to self: Log 1/Ki recorded for COc1cc(CNC(=O)C(=O)c2c[nH]c3ccc([N+](=O)[O-])cc23)ccc1O was 7.89

Note to self: Log 1/Ki recorded for COc1ccc(CNC(=O)C(=O)c2c[nH]c3ccc([N+](=O)[O-])cc23)cc1 was 7.28

Note to self: Log 1/Ki recorded for O=C(NCc1cccc(O)c1)C(=O)c1c[nH]c2ccc(Cl)cc12 was 6.24

Note to self: Log 1/Ki recorded for COc1ccc(CNC(=O)C(=O)c2c[nH]c3ccccc23)cc1 was 6.79

Note to self: Log 1/Ki recorded for O=C(NCc1ccc(O)cc1)C(=O)c1c[nH]c2ccccc12 was 6.37

Note to self: Log 1/Ki recorded for O=C(NCc1ccccc1)C(=O)c1c[nH]c2ccccc12 was 6.92
